Settings: in acetonitrile, 303.15 K

Chemical string: CC1(C)S[C@@H]2[C@H](NC(=O)[C@H](NC(=O)N3CCNC3=O)c3ccccc3)C(=O)N2[C@H]1C(=O)O
solubility (mole fraction): 0.000934

---

Settings: in ethanol, 298.15 K
Measured quantity: solubility (mole fraction)

Chemical string: CC1(C)S[C@@H]2[C@H](NC(=O)[C@H](NC(=O)N3CCNC3=O)c3ccccc3)C(=O)N2[C@H]1C(=O)O
Measured quantity: solubility (mole fraction)
Experimental value: 0.00131

---

Settings: in isopropyl acetate, 313.15 K

Chemical string: CC1(C)S[C@@H]2[C@H](NC(=O)[C@H](NC(=O)N3CCNC3=O)c3ccccc3)C(=O)N2[C@H]1C(=O)O
solubility (mole fraction): 0.00017

meta.source: BigSolDB 2.1
